B1: HDV Ribozyme (parent)
chain: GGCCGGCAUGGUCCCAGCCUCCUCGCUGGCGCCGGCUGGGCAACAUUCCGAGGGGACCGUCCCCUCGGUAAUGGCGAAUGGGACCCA

variants of: B1; assay: self-cleavage, relative activity (ratio to wild type); higher = more cleavage; co-transcriptional
Readout: self-cleavage

seq_string="GGCCGGCAUGGUCCCAGCCUCCUCGCUGGUGUCGGCUGGGCAACAUUCCGAGGGGACCGUCCCCUCGGUAAUGGCGAAUGGGACCCA [C30U C32U]" observed_result=0.7
seq_string="GGCCGGCAUGGUCCCAGCUUCCUCGCUGGCACCGGCUGGGCAACAUUCCGAGGGGACCGUCCCCUCGGUAAUGGCGAAUGGGACCCA [C19U G31A]" observed_result=0.102
seq_string="GGCUGGCAUGGUCCCAGCCUCCUCGCUGGCGCCGGCUGGGCAACAUUCCGGGGGGACCGUCCCCUCGGUAAUGGCGAAUGGGACCCA [C4U A51G]" observed_result=0.467
seq_string="GGCCGGCAUGGUCCCAGCCCCCUCGCUGGCGCCGGCUGGGCAACAUUCCGAGGGGACCGUCCCCUCGGUAAUGGCGAAUUGGACCCA [U20C G80U]" observed_result=0.0625
seq_string="GGCCGGCAUGGUCCCAGCCUCCUCGCUGGCGACGGCUGGGCAACAUUUCGAGGGGACCGUCCCCUCGGUAAUGGCGAAUGGGACCCA [C32A C48U]" observed_result=0.106
seq_string="GGCCGGCAUGGUCCCAGCCUCCUCGCUGGCGCCGACUGGGCAACAUUCCGAGGGGACCGUCCCCUCGGUAAUGGUGAAUGGGACCCA [G35A C75U]" observed_result=0.133
seq_string="GGCCGCCAUGGUCCCAGCCUCCUCGCUGGCGCCGACUGGGCAACAUUCCGAGGGGACCGUCCCCUCGGUAAUGGCGAAUGGGACCCA [G6C G35A]" observed_result=0.0755
seq_string="GGCCGGCAUGGUCCCAGCCUCCUCGCUGGCGUCGCCUGGGCAACAUUCCGAGGGGACCGUCCCCUCGGUAAUGGCGAAUGGGACCCA [C32U G35C]" observed_result=0.0573
seq_string="GGCCGUCAUGGUCCCAGCCUCCUCGCUGGCGCCGGCUGGGCAACAUUCCGAGGGGACCGUCCCCUCGGUAAUGGCGAAUGGAACCCA [G6U G82A]" observed_result=0.0875
seq_string="GGCCGGCAUGGUCCCAGCCUCCUCGCUGGCGCCGGCUGUGCAACAUUCCGAGGGGACCGUCCCCUCGGAAAUGGCGAAUGGGACCCA [G39U U69A]" observed_result=0.492
seq_string="GGCCUGCAUGGUCCCAGCCUCCUCGCUGGCGCCGGCUGGGCAACAUUCCGAGGGGACCGUCCCCUCGGUAAUGGCGAAUGGGACCCG [G5U A87G]" observed_result=0.636
seq_string="GGCCGGGAUGGUCCCACCCUCCUCGCUGGCGCCGGCUGGGCAACAUUCCGAGGGGACCGUCCCCUCGGUAAUGGCGAAUGGGACCCA [C7G G17C]" observed_result=0
seq_string="GGCCGGCAUGGUCCCAGCCUCCUCGCUGACGCCGGCUGGGCAAUAUUCCGAGGGGACCGUCCCCUCGGUAAUGGCGAAUGGGACCCA [G29A C44U]" observed_result=0.151
seq_string="GGUCGGCAUGGUCCCAGCCUCCUCGCUGGCGCCGGCUGGGCAACAUUCCGAGGGGCCCGUCCCCUCGGUAAUGGCGAAUGGGACCCA [C3U A56C]" observed_result=0.675
seq_string="GGCCGGCAUGGUCCCAGCAUCCUCGCUGGCGCCGGCUGCGCAACAUUCCGAGGGGACCGUCCCCUCGGUAAUGGCGAAUGGGACCCA [C19A G39C]" observed_result=0
seq_string="GCCCGGCAUGGUCCCAGCCUCCUCGCUGGCGCCGGCAGGGCAACAUUCCGAGGGGACCGUCCCCUCGGUAAUGGCGAAUGGGACCCA [G2C U37A]" observed_result=0.0583
seq_string="GGCCGGCAUGGUCCCAGCCUCCUCGCUGGCGCCGGCUAGGCAACAUUCCGAGGGGACCGUCCCGUCGGUAAUGGCGAAUGGGACCCA [G38A C64G]" observed_result=0.142
seq_string="GGCCGGCAUGGUCCCAGCCUCCUCGCUGGCACCGGCUGGGCAACAUUCCGAGGGGACCGUCCCCUCGGUAAUGGCCAAUGGGACCCA [G31A G76C]" observed_result=0.469
seq_string="GGCCGGCAUGGUCCAAGCCUCCUCGCUGUCGCCGGCUGGGCAACAUUCCGAGGGGACCGUCCCCUCGGUAAUGGCGAAUGGGACCCA [C15A G29U]" observed_result=0
seq_string="GGCCGGCAUCGUCCCAGACUCCUCGCUGGCGCCGGCUGGGCAACAUUCCGAGGGGACCGUCCCCUCGGUAAUGGCGAAUGGGACCCA [G10C C18A]" observed_result=0.0906
seq_string="GGCCGGCAUGGUCCCAGCCUCCUCGCUGGCGCCGGCUGGGCAACAUUCCGCGGGAACCGUCCCCUCGGUAAUGGCGAAUGGGACCCA [A51C G55A]" observed_result=0.873
seq_string="GGCCGGCAUGGCCCCAGCCUCCUCGCUGGCGCCGGCUGGGCAACAUUCCGAGGGGACCGUCCCCUCGGUAAUGGCGAAUGGAACCCA [U12C G82A]" observed_result=0.0923
